# credit: patent US20200199204A1

Biological target: HIV-1 Env of SC422.8 (HIV-1)
Assay: cell-based or functional assay
neutralization IC50 reference

- binder: "CAP256-VRC26.03 (antibody, V domains shown) VH: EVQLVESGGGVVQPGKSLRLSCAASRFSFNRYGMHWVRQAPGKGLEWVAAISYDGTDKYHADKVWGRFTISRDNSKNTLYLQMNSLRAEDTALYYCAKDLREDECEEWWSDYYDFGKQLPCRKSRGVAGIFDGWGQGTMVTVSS VL: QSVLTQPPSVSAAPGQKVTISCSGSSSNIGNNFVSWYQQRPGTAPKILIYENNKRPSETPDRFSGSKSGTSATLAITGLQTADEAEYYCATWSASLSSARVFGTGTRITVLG"
  neutralization IC50: "> 50 µg/mL"
- binder: "CAP256-VRC26.07 (antibody, V domains shown) VH: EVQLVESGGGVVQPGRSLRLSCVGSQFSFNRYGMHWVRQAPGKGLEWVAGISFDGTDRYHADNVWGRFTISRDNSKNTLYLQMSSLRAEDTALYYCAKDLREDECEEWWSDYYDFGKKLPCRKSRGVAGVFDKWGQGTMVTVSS VL: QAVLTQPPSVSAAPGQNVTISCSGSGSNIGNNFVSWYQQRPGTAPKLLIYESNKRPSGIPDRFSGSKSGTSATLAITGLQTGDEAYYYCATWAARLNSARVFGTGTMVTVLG"
  neutralization IC50: "> 50 µg/mL"
